Reference for the values: patent US20150299125A1

# Prodrug concentration at 2 h annotations
# protocol description: Conversion of prodrug to parent in liver homogenate
# Format: in vitro ADME
# test conditions: prodrug 1 μM, liver S9 1 mg protein/mL, 37° C., pH 7.4, 2 h
quantity measured: Prodrug concentration at 2 h (µM)

compound=Cc1cc(Nc2cc(C(F)F)ccn2)nc(-c2ccc([C@](C)(O)[C@H]3CC[C@H](C(=O)OC[N+]4(C)CCOCC4)CC3)nc2)c1.[I-] quantity_measured="Prodrug concentration at 2 h" measure_unit=µM obs_value=0.314
compound=CCOCCOCCOC(=O)OCOC(=O)[C@H]1CC[C@H]([C@@](C)(O)c2ccc(-c3cc(C)cc(Nc4cc(C(F)F)ccn4)n3)cn2)CC1 quantity_measured="Prodrug concentration at 2 h" measure_unit=µM obs_value=0
compound=Cc1cc(Nc2cc(C(F)F)ccn2)nc(-c2ccc([C@](C)(O)[C@H]3CC[C@H](C(=O)OCOC(=O)OCCCS(C)(=O)=O)CC3)nc2)c1 quantity_measured="Prodrug concentration at 2 h" measure_unit=µM obs_value=0.12
compound=Cc1cc(Nc2cc(C(F)F)ccn2)nc(-c2ccc([C@](C)(O)[C@H]3CC[C@H](C(=O)OCOC(=O)OCCOCCOCCOCCOP(=O)(O)O)CC3)nc2)c1 quantity_measured="Prodrug concentration at 2 h" measure_unit=µM obs_value=0
compound=Cc1cc(Nc2cc(C(F)F)ccn2)nc(-c2ccc([C@](C)(O)[C@H]3CC[C@H](C(=O)OCCOP(=O)(O)O)CC3)nc2)c1 quantity_measured="Prodrug concentration at 2 h" measure_unit=µM obs_value=0.434
compound=Cc1cc(Nc2cc(C(F)F)ccn2)nc(-c2ccc([C@](C)(O)[C@H]3CC[C@H](C(=O)OCn4cc[n+](C)c4)CC3)nc2)c1 quantity_measured="Prodrug concentration at 2 h" measure_unit=µM obs_value=0.622
compound="Cc1cc(Nc2cc(C(F)F)ccn2)nc(-c2ccc([C@](C)(O)[C@H]3CC[C@H](C(=O)OCC[S@@+](C)[O-])CC3)nc2)c1 (single isomer, unassigned)" quantity_measured="Prodrug concentration at 2 h" measure_unit=µM obs_value=0
compound="CCOCCOCCOC(=O)OC(OC(=O)[C@H]1CC[C@H]([C@@](C)(O)c2ccc(-c3cc(C)cc(Nc4cc(C(F)F)ccn4)n3)cn2)CC1)C(C)C (stereo partly drawn)" quantity_measured="Prodrug concentration at 2 h" measure_unit=µM obs_value=0
compound="COCCN(C)C(=O)OC(C)OC(=O)[C@H]1CC[C@H]([C@@](C)(O)c2ccc(-c3cc(C)cc(Nc4cc(C(F)F)ccn4)n3)cn2)CC1 (mixture of isomers)" quantity_measured="Prodrug concentration at 2 h" measure_unit=µM obs_value=0
